Reference source for all entries: patent US20050266060A1

Test: brain and plasma drug levels in rats after phenserine i.v. dosing
Conditions: rat, brain / plasma, iv

{"columns": ["molecule", "Kp"],
 "data": [
  ["CN1CC[C@@]2(C)c3cc(OC(=O)Nc4ccccc4)ccc3N(C)C12 (single isomer, unassigned)", 10]
]}

###

Test: brain and plasma drug levels in rats after phenserine i.v. dosing
Details: rat, plasma, iv

{"columns": ["compound", "half-life (min)"],
 "data": [
  ["CN1CC[C@@]2(C)c3cc(OC(=O)Nc4ccccc4)ccc3N(C)C12 (single isomer, unassigned) [phenserine]", 12.6]
]}

###

Biological target: AChE (Rattus norvegicus)
Sequence (P37136 32-614): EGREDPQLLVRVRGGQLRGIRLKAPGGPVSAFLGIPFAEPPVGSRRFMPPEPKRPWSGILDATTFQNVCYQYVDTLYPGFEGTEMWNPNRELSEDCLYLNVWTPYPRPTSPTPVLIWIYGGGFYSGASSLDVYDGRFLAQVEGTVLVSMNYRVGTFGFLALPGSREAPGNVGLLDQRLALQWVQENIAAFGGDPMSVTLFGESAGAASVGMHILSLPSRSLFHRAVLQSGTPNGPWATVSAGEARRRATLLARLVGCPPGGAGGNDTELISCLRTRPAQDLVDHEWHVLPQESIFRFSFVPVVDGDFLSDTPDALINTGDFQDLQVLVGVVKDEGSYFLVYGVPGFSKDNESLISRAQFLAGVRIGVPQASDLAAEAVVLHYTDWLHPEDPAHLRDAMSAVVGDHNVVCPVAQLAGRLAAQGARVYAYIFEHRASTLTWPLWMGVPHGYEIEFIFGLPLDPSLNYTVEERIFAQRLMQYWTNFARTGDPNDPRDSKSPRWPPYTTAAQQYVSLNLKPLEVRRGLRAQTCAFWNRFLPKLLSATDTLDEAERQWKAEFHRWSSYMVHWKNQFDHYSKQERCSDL
Assay: time-dependent AChE inhibition in rats after phenserine administration
Settings: rat, plasma, po
propertyLabel: bioavailability (%)

{"columns": ["molecule", "resultNumber"],
 "data": [
  ["CN1CC[C@@]2(C)c3cc(OC(=O)Nc4ccccc4)ccc3N(C)C12 (single isomer, unassigned) [phenserine]", 100]
]}
